Where do these numbers come from? They come from the supplement of paper PMC9170038.

- Tested on: MS2 coat protein
- Run description: apparent KD of MS2 coat protein; designed switch direction (-1 OFF switch, 1 ON switch): -1; higher = weaker reporter binding
- Cond: Eterna round: R95; input ligand: microRNA oligo, concentration not stated
Exercise: for every item that follows, state its recorded apparent KD of MS2 coat protein.
Give bare numbers, in nM.

Below are 2 sequences. Give each one its apparent KD of MS2 coat protein.
1. CUGGUCCGAGGAUAUAUUAAGUGAUACAUGAGGAUCACCCAUGUUAUUUAAUGGAUAUUAAUAGAAGGCGGACUAG [Mat - Exclusion 5 - JL mod - D77] (puzzle: Exclusion 5)
2. CGUGGACUAGGAUAUUUACGAGGCUACAUGAGGAUCACCCAUGUGUUCUCGAGUACCAUGAAAGAAGGAGUAGCGA [Betiatte] (puzzle: Exclusion 5)

1. 28.4
2. 12

Which value of apparent KD of MS2 coat protein has been reported for AAACGGCGGAUCGUGGCUUUUUGCUCGUCUUGUGCUUCAACAUGAGGAUCACCCAUGUAGUGGUGAUCCGUUGUAAA [Grok-var2-17 mod JAL] (puzzle: Sensor v3, turn-off variant 2) in the records?
26.7
